target-or-test-system: Voltage-dependent T-type calcium channel subunit alpha-1H (Homo sapiens) (UniProt O95180)
Sequence (O95180 whole entry, looked up): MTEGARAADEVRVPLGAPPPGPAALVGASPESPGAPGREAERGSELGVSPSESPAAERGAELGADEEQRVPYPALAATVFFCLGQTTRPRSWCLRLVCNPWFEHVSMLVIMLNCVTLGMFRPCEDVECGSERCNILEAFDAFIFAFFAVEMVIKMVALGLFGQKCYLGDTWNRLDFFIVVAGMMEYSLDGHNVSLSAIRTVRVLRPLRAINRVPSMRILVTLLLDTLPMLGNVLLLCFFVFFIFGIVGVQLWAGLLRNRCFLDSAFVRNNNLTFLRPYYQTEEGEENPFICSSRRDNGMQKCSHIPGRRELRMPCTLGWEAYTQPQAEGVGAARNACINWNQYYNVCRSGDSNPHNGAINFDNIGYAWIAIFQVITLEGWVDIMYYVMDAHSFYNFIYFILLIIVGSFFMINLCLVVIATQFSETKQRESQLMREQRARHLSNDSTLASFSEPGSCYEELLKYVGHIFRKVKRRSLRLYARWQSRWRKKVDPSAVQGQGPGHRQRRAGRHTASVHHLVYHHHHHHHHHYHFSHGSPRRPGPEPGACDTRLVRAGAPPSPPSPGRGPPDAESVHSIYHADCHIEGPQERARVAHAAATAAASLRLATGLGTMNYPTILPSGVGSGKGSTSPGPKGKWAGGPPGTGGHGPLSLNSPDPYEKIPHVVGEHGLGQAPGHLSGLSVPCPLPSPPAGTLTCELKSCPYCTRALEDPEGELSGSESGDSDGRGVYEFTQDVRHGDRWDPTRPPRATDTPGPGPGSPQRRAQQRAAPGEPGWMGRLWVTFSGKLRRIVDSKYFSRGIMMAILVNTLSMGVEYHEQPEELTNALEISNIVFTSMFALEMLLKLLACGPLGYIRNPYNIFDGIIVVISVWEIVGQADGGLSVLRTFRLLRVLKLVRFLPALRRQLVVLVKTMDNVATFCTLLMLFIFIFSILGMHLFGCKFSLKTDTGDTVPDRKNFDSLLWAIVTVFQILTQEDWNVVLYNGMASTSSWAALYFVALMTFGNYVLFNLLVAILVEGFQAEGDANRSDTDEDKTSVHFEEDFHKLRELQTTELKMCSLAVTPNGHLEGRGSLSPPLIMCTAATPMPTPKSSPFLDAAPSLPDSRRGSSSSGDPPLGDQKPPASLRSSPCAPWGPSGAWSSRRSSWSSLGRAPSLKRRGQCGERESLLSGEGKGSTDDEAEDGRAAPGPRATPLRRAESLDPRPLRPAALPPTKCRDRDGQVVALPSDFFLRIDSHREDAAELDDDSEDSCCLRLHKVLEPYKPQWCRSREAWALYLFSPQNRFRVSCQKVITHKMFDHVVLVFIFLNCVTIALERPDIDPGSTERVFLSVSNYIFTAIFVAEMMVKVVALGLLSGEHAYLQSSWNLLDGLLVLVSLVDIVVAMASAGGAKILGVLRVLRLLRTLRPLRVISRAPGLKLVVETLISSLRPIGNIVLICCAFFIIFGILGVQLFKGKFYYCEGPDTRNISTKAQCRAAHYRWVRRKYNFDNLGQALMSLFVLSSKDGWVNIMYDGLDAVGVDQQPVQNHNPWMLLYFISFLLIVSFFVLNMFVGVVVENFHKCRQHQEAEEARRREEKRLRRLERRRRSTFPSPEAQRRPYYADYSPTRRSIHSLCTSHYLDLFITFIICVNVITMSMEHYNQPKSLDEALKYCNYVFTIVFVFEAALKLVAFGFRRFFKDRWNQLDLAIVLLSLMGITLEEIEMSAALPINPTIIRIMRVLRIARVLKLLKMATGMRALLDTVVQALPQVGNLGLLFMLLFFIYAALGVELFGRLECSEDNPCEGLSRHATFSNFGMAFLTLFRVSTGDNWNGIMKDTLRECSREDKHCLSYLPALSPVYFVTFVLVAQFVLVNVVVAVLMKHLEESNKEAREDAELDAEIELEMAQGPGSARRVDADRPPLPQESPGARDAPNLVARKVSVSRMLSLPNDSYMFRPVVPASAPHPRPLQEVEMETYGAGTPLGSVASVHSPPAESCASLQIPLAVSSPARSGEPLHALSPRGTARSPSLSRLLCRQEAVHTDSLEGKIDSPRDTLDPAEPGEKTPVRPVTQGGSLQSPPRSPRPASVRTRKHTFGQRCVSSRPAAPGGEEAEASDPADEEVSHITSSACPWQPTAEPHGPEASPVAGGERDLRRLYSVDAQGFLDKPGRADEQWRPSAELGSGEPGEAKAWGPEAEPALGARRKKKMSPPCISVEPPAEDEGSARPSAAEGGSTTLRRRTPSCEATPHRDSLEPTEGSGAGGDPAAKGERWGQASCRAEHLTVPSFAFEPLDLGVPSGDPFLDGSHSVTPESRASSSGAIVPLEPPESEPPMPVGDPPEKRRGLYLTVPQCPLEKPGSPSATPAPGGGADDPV
measurement-notes: Cav3.2 calcium influx blockers – cell-based, Fluo-4 calcium fluorescence, FDSS, MLSMR library, primary screen (AID 449739)
conditions: Cav3.2-expressing cells, at 10 µM
Out of some 100,000 compounds screened, about 4,200 (4.2%) were called active.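 Rule for the calls: active = single-dose well whose peak fluorescence ratio is a statistical outlier from its plate by either plate-standardised score or position-corrected B-score; inactive = the rest.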 Shown is part of a subset that was picked to be rich in actives.
Possible outcomes: active, inactive

[
  {
    "molecule": "O=C(Cn1c(=O)sc2ccccc21)Nc1ccc2c(c1)OCCO2",
    "target-or-test-system": "Voltage-dependent T-type calcium channel subunit alpha-1H (Homo sapiens) (UniProt O95180)",
    "answer-label": "inactive"
  },
  {
    "molecule": "Cc1cccc(N2CCN(C(=O)CN(C)S(=O)(=O)c3ccc4c(c3)CCC(=O)N4)CC2)c1C",
    "target-or-test-system": "Voltage-dependent T-type calcium channel subunit alpha-1H (Homo sapiens) (UniProt O95180)",
    "answer-label": "inactive"
  },
  {
    "molecule": "O=C(CSc1nnc(-c2c[nH]c3ccccc23)o1)c1ccccc1",
    "target-or-test-system": "Voltage-dependent T-type calcium channel subunit alpha-1H (Homo sapiens) (UniProt O95180)",
    "answer-label": "inactive"
  },
  {
    "molecule": "O=c1c2ccccc2nc2n1C(CSc1ccc(F)cc1)CN2 (stereo not drawn)",
    "target-or-test-system": "Voltage-dependent T-type calcium channel subunit alpha-1H (Homo sapiens) (UniProt O95180)",
    "answer-label": "inactive"
  },
  {
    "molecule": "CCCn1c(C)cc(C(=O)COC(=O)c2c(C)nn(-c3ccccc3)c2C)c1C",
    "target-or-test-system": "Voltage-dependent T-type calcium channel subunit alpha-1H (Homo sapiens) (UniProt O95180)",
    "answer-label": "inactive"
  },
  {
    "molecule": "COc1cc(NS(=O)(=O)c2ccc(N=Cc3c(C)[nH]n(-c4ccccc4)c3=O)cc2)nc(OC)n1",
    "target-or-test-system": "Voltage-dependent T-type calcium channel subunit alpha-1H (Homo sapiens) (UniProt O95180)",
    "answer-label": "inactive"
  },
  {
    "molecule": "O=C(NCCC1=CCCCC1)C1CCN(Cc2cnn(-c3ccccc3)c2-n2cccc2)CC1",
    "target-or-test-system": "Voltage-dependent T-type calcium channel subunit alpha-1H (Homo sapiens) (UniProt O95180)",
    "answer-label": "active"
  },
  {
    "molecule": "CNC(=O)c1csc(-c2ccccc2)n1",
    "target-or-test-system": "Voltage-dependent T-type calcium channel subunit alpha-1H (Homo sapiens) (UniProt O95180)",
    "answer-label": "inactive"
  },
  {
    "molecule": "O=C(C1=C[C@H](c2coc3ccccc3c2=O)C[C@H](OCc2ccc(CO)cc2)O1)N1CCOCC1",
    "target-or-test-system": "Voltage-dependent T-type calcium channel subunit alpha-1H (Homo sapiens) (UniProt O95180)",
    "answer-label": "inactive"
  },
  {
    "molecule": "C1=C(CCNc2ncnc3c2cnn3-c2ccccc2)CCCC1",
    "target-or-test-system": "Voltage-dependent T-type calcium channel subunit alpha-1H (Homo sapiens) (UniProt O95180)",
    "answer-label": "inactive"
  },
  {
    "molecule": "CS(=O)(=O)N(CC(=O)Nc1ccc(Cl)c(Cl)c1)C1CCCCC1",
    "target-or-test-system": "Voltage-dependent T-type calcium channel subunit alpha-1H (Homo sapiens) (UniProt O95180)",
    "answer-label": "active"
  },
  {
    "molecule": "O=C(Nc1cccc2ncccc12)C(Cl)(Cl)Cl",
    "target-or-test-system": "Voltage-dependent T-type calcium channel subunit alpha-1H (Homo sapiens) (UniProt O95180)",
    "answer-label": "inactive"
  },
  {
    "molecule": "COc1ccc(OC)c2sc(NC(=O)C3COc4ccccc4O3)nc12 (stereo not drawn)",
    "target-or-test-system": "Voltage-dependent T-type calcium channel subunit alpha-1H (Homo sapiens) (UniProt O95180)",
    "answer-label": "active"
  },
  {
    "molecule": "Cc1ccnc(N2CCN(C(=O)CSc3nc4ccccc4nc3N3CCCCC3)CC2)c1",
    "target-or-test-system": "Voltage-dependent T-type calcium channel subunit alpha-1H (Homo sapiens) (UniProt O95180)",
    "answer-label": "active"
  },
  {
    "molecule": "COC(=O)C1C(=O)NCC1c1ccc(OC)cc1 (stereo not drawn)",
    "target-or-test-system": "Voltage-dependent T-type calcium channel subunit alpha-1H (Homo sapiens) (UniProt O95180)",
    "answer-label": "inactive"
  },
  {
    "molecule": "C[C@@H]1NC(=O)c2cc([N+](=O)[O-])cc(F)c2NCCC[C@@H](C(N)=O)NC(=O)[C@H](CC(N)=O)NC1=O",
    "target-or-test-system": "Voltage-dependent T-type calcium channel subunit alpha-1H (Homo sapiens) (UniProt O95180)",
    "answer-label": "inactive"
  },
  {
    "molecule": "O=C(NC1CC1)C1=C[C@H](c2coc3ccccc3c2=O)C[C@H](OCCCCO)O1",
    "target-or-test-system": "Voltage-dependent T-type calcium channel subunit alpha-1H (Homo sapiens) (UniProt O95180)",
    "answer-label": "inactive"
  },
  {
    "molecule": "COC(=O)C1=C(Nc2ccc(OC)cc2)C=C(C)C(C(=O)OC)C1c1ccc(C)cc1 (stereo not drawn)",
    "target-or-test-system": "Voltage-dependent T-type calcium channel subunit alpha-1H (Homo sapiens) (UniProt O95180)",
    "answer-label": "active"
  },
  {
    "molecule": "CCn1c(COc2ccc(OC)cc2)nnc1SCC(=O)Nc1cc(OC)ccc1OC",
    "target-or-test-system": "Voltage-dependent T-type calcium channel subunit alpha-1H (Homo sapiens) (UniProt O95180)",
    "answer-label": "inactive"
  },
  {
    "molecule": "CCCCCCCCCCCCN1[C@@H](CC(C)=O)c2cc(F)cc(F)c2S1(=O)=O",
    "target-or-test-system": "Voltage-dependent T-type calcium channel subunit alpha-1H (Homo sapiens) (UniProt O95180)",
    "answer-label": "inactive"
  },
  {
    "molecule": "O=S(=O)(O)c1nc2ccccc2n1Cc1ccc(Cl)cc1",
    "target-or-test-system": "Voltage-dependent T-type calcium channel subunit alpha-1H (Homo sapiens) (UniProt O95180)",
    "answer-label": "inactive"
  },
  {
    "molecule": "Cc1ccc(S(=O)(=O)NCC(=O)N2CCN(c3ccccn3)CC2)cc1",
    "target-or-test-system": "Voltage-dependent T-type calcium channel subunit alpha-1H (Homo sapiens) (UniProt O95180)",
    "answer-label": "inactive"
  },
  {
    "molecule": "COC(=O)c1cc(OC)ccc1-c1ccc(OC)cc1",
    "target-or-test-system": "Voltage-dependent T-type calcium channel subunit alpha-1H (Homo sapiens) (UniProt O95180)",
    "answer-label": "inactive"
  },
  {
    "molecule": "O=C1N=C(N2CCCC2)S/C1=C\\c1cccc(Br)c1",
    "target-or-test-system": "Voltage-dependent T-type calcium channel subunit alpha-1H (Homo sapiens) (UniProt O95180)",
    "answer-label": "inactive"
  },
  {
    "molecule": "C[C@@H](C(=O)N1CCNCC1)n1cc(CCC(=O)O)nn1",
    "target-or-test-system": "Voltage-dependent T-type calcium channel subunit alpha-1H (Homo sapiens) (UniProt O95180)",
    "answer-label": "inactive"
  },
  {
    "molecule": "Cc1nnc(SCC(=O)N2CCN(c3ccccc3)CC2)n1-c1ccccc1",
    "target-or-test-system": "Voltage-dependent T-type calcium channel subunit alpha-1H (Homo sapiens) (UniProt O95180)",
    "answer-label": "inactive"
  },
  {
    "molecule": "COc1ccc(-c2nn(-c3ccccc3)cc2C(=O)Nc2nccs2)cc1OC",
    "target-or-test-system": "Voltage-dependent T-type calcium channel subunit alpha-1H (Homo sapiens) (UniProt O95180)",
    "answer-label": "inactive"
  },
  {
    "molecule": "CCCCNC(=O)C(=O)c1ccccc1NC(C)=O",
    "target-or-test-system": "Voltage-dependent T-type calcium channel subunit alpha-1H (Homo sapiens) (UniProt O95180)",
    "answer-label": "inactive"
  },
  {
    "molecule": "Cc1cc(C(=O)NCCCc2ccccc2)no1",
    "target-or-test-system": "Voltage-dependent T-type calcium channel subunit alpha-1H (Homo sapiens) (UniProt O95180)",
    "answer-label": "inactive"
  },
  {
    "molecule": "CNC(=O)c1[nH]cnc1C(=O)N[C@@H](CC(C)C)C(=O)OCc1ccccc1",
    "target-or-test-system": "Voltage-dependent T-type calcium channel subunit alpha-1H (Homo sapiens) (UniProt O95180)",
    "answer-label": "inactive"
  },
  {
    "molecule": "COCCN1C(=O)N[C@@H](CCc2ccccc2)[C@H](C(C)=O)[C@H]1C",
    "target-or-test-system": "Voltage-dependent T-type calcium channel subunit alpha-1H (Homo sapiens) (UniProt O95180)",
    "answer-label": "inactive"
  },
  {
    "molecule": "CCn1cc(C(=O)NCC2COc3ccccc3O2)c2cc(OC)c(OC)cc2c1=O (stereo not drawn)",
    "target-or-test-system": "Voltage-dependent T-type calcium channel subunit alpha-1H (Homo sapiens) (UniProt O95180)",
    "answer-label": "inactive"
  },
  {
    "molecule": "CC(C)c1ccc(C(=O)NCCCc2ccccc2)cc1",
    "target-or-test-system": "Voltage-dependent T-type calcium channel subunit alpha-1H (Homo sapiens) (UniProt O95180)",
    "answer-label": "active"
  },
  {
    "molecule": "COc1ccc(C(=O)Nc2nc(-c3ccc(OC)cc3)c(-c3ccc([N+](=O)[O-])cc3)s2)cc1",
    "target-or-test-system": "Voltage-dependent T-type calcium channel subunit alpha-1H (Homo sapiens) (UniProt O95180)",
    "answer-label": "inactive"
  },
  {
    "molecule": "Cc1[nH]n(-c2cccc(Cl)c2)c(=O)c1/C=N/n1c(C)nc2ccccc2c1=O",
    "target-or-test-system": "Voltage-dependent T-type calcium channel subunit alpha-1H (Homo sapiens) (UniProt O95180)",
    "answer-label": "active"
  },
  {
    "molecule": "Cc1ccccc1NC(=O)Cc1nnc(SCC(=O)N2CCN(c3ccccc3)CC2)n1C",
    "target-or-test-system": "Voltage-dependent T-type calcium channel subunit alpha-1H (Homo sapiens) (UniProt O95180)",
    "answer-label": "inactive"
  },
  {
    "molecule": "COc1ccc(C(=O)Nc2ccc(S(=O)(=O)NC(C)C)cc2)cc1",
    "target-or-test-system": "Voltage-dependent T-type calcium channel subunit alpha-1H (Homo sapiens) (UniProt O95180)",
    "answer-label": "inactive"
  },
  {
    "molecule": "C=CCn1c(-c2ccc(Cl)cc2)ccc(C#N)c1=O",
    "target-or-test-system": "Voltage-dependent T-type calcium channel subunit alpha-1H (Homo sapiens) (UniProt O95180)",
    "answer-label": "inactive"
  },
  {
    "molecule": "COc1ccc(/C=C/C(=O)Nc2c(C)nn(C)c2C)cc1COc1ccc(Br)cc1",
    "target-or-test-system": "Voltage-dependent T-type calcium channel subunit alpha-1H (Homo sapiens) (UniProt O95180)",
    "answer-label": "inactive"
  },
  {
    "molecule": "COC(=O)c1ccc(NC(=O)Nc2ccc(C)cc2)cc1",
    "target-or-test-system": "Voltage-dependent T-type calcium channel subunit alpha-1H (Homo sapiens) (UniProt O95180)",
    "answer-label": "inactive"
  },
  {
    "molecule": "COc1cccc(Nc2nnc(SCC(=O)N3CC(C)OC(C)C3)s2)c1 (stereo not drawn)",
    "target-or-test-system": "Voltage-dependent T-type calcium channel subunit alpha-1H (Homo sapiens) (UniProt O95180)",
    "answer-label": "active"
  },
  {
    "molecule": "NC(=O)C1=C[C@@H](c2ccc3c(c2)OCO3)C[C@@H](OCCCCO)O1",
    "target-or-test-system": "Voltage-dependent T-type calcium channel subunit alpha-1H (Homo sapiens) (UniProt O95180)",
    "answer-label": "inactive"
  },
  {
    "molecule": "COc1ccc(NC(=O)CC2COc3ccccc3O2)c(OC)c1 (stereo not drawn)",
    "target-or-test-system": "Voltage-dependent T-type calcium channel subunit alpha-1H (Homo sapiens) (UniProt O95180)",
    "answer-label": "inactive"
  }
]
